Target: UniProt:O43614
Sequence (O43614 1-444): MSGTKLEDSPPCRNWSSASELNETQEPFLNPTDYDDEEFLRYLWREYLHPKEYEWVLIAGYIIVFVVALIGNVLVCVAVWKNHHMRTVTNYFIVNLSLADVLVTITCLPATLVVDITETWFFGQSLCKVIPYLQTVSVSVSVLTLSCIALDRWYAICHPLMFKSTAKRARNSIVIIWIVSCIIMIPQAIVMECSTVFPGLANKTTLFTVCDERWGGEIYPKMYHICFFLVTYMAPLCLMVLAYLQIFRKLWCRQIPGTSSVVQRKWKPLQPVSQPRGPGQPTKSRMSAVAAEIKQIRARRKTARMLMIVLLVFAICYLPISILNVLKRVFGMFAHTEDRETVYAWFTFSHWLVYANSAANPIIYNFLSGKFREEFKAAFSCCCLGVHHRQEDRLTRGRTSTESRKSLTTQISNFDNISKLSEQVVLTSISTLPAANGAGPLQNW
Test: Radioligand displacement, [3H]EMPA
Conditions: pKi
pKi: −log10 of the molar value.
reported_endpoint: pKi

pKi lookup needed for COc1ccccc1OCCNCCCOc1ccc2c(c1)NC(=O)CO2 , thanks. < 4.30

* * *

Molecular target: adrenergic α2C (Homo sapiens, UniProt P18825)
Sequence (P18825 whole entry): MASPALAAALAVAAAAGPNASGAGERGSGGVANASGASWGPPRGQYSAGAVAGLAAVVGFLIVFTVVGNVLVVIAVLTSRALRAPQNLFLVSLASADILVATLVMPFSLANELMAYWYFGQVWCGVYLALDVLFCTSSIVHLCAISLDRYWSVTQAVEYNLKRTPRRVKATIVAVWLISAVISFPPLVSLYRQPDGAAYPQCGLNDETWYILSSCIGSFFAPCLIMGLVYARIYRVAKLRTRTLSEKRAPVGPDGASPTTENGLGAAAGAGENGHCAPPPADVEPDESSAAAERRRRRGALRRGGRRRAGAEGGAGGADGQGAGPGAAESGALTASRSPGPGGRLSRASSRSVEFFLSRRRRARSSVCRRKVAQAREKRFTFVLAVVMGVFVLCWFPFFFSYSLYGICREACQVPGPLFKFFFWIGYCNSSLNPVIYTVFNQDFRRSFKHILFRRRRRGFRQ
Assay: Radioligand displacement, [3H]RX821002
Details: pKi
reported_endpoint: pKi
Scale explanation: pKi corresponds to minus log10 of a concentration expressed in moles per litre.

pKi lookup needed for COc1ccccc1OCCNCCCOc1ccc2c(c1)NC(=O)CO2 , thanks. 7.59

* * *

Target: dopamine D1 (Homo sapiens, UniProt P21728)
Sequence (P21728 whole entry): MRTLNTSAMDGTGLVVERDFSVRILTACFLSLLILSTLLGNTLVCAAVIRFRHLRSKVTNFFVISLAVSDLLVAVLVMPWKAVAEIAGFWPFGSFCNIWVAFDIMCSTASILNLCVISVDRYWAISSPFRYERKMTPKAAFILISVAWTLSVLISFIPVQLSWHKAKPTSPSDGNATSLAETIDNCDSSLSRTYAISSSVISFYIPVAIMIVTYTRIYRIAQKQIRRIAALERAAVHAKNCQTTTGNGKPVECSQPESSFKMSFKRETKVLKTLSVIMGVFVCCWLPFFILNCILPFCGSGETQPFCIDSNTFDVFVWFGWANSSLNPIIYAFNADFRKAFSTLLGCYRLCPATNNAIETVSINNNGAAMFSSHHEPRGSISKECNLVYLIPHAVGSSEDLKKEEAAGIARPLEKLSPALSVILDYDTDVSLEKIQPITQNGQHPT
Experiment: Radioligand displacement, [3H]SCH23390
Settings: pKi
reported_endpoint: pKi
Scale explanation: pKi corresponds to minus log10 of a concentration expressed in moles per litre.

pKi lookup needed for COc1ccccc1OCCNCCCOc1ccc2c(c1)NC(=O)CO2 , thanks. 6.68

* * *

Target: 5-HT1AR Q97^2.65A (Homo sapiens, UniProt P08908, Q97A)
Sequence (P08908 1-422 Q97A): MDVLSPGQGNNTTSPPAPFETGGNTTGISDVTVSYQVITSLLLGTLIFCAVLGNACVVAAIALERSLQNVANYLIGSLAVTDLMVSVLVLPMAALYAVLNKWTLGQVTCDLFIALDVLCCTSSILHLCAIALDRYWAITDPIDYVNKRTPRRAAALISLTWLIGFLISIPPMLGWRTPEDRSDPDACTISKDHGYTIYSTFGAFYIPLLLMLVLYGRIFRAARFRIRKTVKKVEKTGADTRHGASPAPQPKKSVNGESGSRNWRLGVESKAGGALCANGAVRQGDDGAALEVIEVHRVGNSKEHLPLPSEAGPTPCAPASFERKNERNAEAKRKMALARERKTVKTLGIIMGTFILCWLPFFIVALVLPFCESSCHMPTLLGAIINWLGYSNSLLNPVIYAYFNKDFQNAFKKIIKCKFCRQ
Experiment: GloSensor inhibition of cAMP accumulation in HEK293AΔGs
Assay type: cell-based
Settings: HEK293AΔGs, Q97A; read-out: EC50 [nM ± SEM], inhibition of cAMP accumulation
reported_endpoint: EC50 (nM)
Express your answer in nM, writing the number without its unit.

EC50 lookup needed for COc1ccccc1OCCNCCCOc1ccc2c(c1)NC(=O)CO2 [ST171] , thanks. 8

* * *

Some compounds, each annotated with its measured Emax.
Target: 5-HT1AR wildtype (Homo sapiens)
Construct: host or cells: HEK293T, HEK293A, HEK293AΔGs, HEK293AΔGi/o, HEK293AΔARRB1/B2
Assay: GloSensor cAMP accumulation in HEK293AΔGi/o
Format: cell-based
Conditions: read-out: Emax [% ± SEM], cAMP accumulation

Reference set, count: 3
compound	reported_endpoint	measured
O=C1Cc2cc(CCN3CCN(c4nsc5ccccc45)CC3)c(Cl)cc2N1	Emax	< 5%
Cc1ccc(CNCC2(F)CCN(C(=O)c3ccc(F)c(Cl)c3)CC2)nc1 [befiradol, reference compound]	Emax	74%
O=C1CCc2ccc(OCCCCN3CCN(c4cccc(Cl)c4Cl)CC3)cc2N1	Emax	< 5%

Let's switch to this compound now.
5-HT1AR wildtype (Homo sapiens) / Emax / O=C1CC2(CCCC2)CC(=O)N1CCCCN1CCN(c2ncccn2)CC1 : value? < 5%
